Reported CC50 values for a set of compounds
test system: human lung carcinoma A549 cells; assay: WST-8 cytotoxicity assay in A549 cells; format: cell-based

{"compound": "COCCn1c2nc(=O)n(-c3ccccc3)c(=O)c-2nc2ccccc21 [NSC 288387]", "CC50": "57 µM"}
{"compound": "CC(=O)c1cc(O)c2ccccc2c1O [NSC 111552]", "CC50": "~187 µM"}

###

molecular target: YFV N7 MTase (Yellow fever virus)
Sequence (P03314 2507-2771 limits assumed): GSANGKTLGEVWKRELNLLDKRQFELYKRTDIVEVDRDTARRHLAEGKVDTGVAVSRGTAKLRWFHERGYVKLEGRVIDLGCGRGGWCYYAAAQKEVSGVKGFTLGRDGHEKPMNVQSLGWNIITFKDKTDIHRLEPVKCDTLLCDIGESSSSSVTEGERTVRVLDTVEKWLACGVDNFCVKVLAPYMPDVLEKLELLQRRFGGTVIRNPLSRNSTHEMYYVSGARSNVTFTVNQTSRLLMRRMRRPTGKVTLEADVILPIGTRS

{"compound": "CC(=O)c1cc(O)c2ccccc2c1O [NSC 111552]", "IC50 / µM": 26.7}
{"compound": "COCCn1c2nc(=O)n(-c3ccccc3)c(=O)c-2nc2ccccc21 [NSC 288387]", "IC50 / µM": 11.2}

###

biological target: DENV3 NS5 MTase (Dengue virus type 3, UniProt Q6YMS4)
Sequence (Q6YMS4 2492-2753): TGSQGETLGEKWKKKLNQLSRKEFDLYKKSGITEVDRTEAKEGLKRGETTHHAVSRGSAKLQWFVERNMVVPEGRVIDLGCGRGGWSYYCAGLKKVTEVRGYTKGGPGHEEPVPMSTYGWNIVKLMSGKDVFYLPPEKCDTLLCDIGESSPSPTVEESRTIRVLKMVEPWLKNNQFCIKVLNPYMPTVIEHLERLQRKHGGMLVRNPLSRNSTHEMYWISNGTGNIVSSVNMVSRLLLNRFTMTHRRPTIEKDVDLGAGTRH
pKd: −log10 of the molar value.
Reported pKd values for a set of compounds
readoutKind: pKd

{"substanceSmiles": "COCCn1c2nc(=O)n(-c3ccccc3)c(=O)c-2nc2ccccc21", "readoutKind": "pKd", "reportedValue": 5.49}
{"substanceSmiles": "CC(=O)c1cc(O)c2ccccc2c1O", "readoutKind": "pKd", "reportedValue": 5.34}

###

test system: SARS-CoV-2; details: read-out: Antiviral EC50; Vero cells, plaques at 72 h post-infection
Reported EC50 values for a set of compounds
readoutKind: EC50 (µM)

{"compound": "CC(=O)c1cc(O)c2ccccc2c1O [NSC 111552]", "reportedValue": 8.5}
{"compound": "COCCn1c2nc(=O)n(-c3ccccc3)c(=O)c-2nc2ccccc21 [NSC 288387]", "reportedValue": 5.7}

###

pIC50: −log10 of the molar value.
# WNV MTase (West Nile virus, UniProt Q9Q6P4): pIC50 values follow
# Sequence (Q9Q6P4 2529-2794 limits assumed): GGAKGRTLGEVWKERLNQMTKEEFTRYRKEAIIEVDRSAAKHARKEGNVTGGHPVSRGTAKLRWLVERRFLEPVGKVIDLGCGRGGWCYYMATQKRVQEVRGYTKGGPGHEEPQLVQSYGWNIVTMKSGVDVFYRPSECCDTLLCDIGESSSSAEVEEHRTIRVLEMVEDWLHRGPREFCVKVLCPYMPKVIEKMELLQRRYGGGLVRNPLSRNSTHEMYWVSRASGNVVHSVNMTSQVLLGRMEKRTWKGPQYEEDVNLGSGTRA
readoutKind: pIC50

{"substanceSmiles": "COCCn1c2nc(=O)n(-c3ccccc3)c(=O)c-2nc2ccccc21", "testedTarget": "WNV MTase (West Nile virus, UniProt Q9Q6P4)", "reportedValue": 4.89}
{"substanceSmiles": "CC(=O)c1cc(O)c2ccccc2c1O", "testedTarget": "WNV MTase (West Nile virus, UniProt Q9Q6P4)", "reportedValue": 5.24}

###

target: DENV3 NS5 MTase (Dengue virus type 3); assay: FL-NAH FP displacement assay, DENV3 NS5; type: binding; settings: DENV3, No DTT
Reported IC50 values for a set of molecules
readoutKind: IC50 (nM)

{"molecule": "CC(=O)c1cc(O)c2ccccc2c1O [NSC 111552]", "readoutKind": "IC50", "readoutUnits": "nM", "reportedValue": 1100}
{"molecule": "COCCn1c2nc(=O)n(-c3ccccc3)c(=O)c-2nc2ccccc21 [NSC 288387]", "readoutKind": "IC50", "readoutUnits": "nM", "reportedValue": 1300}
